Listing of recorded apparent KD of MS2 coat protein by entry.
Tested on: MS2 coat protein
procedureSummary: apparent KD of MS2 coat protein; designed switch direction (-1 OFF switch, 1 ON switch): -1; higher = weaker reporter binding
protocolConditions: input ligand: none

macromoleculeSequence: GCAAGCUUAAUCACUAUGAACAUGAGGAUCACCCAUGUAUAAGGUAAUACUUUUGGGCCCUUUAUUACUCGUCUUAU [JR_STOV1_Sub030] (Eterna round: R97, puzzle: Sensor, turn-off variant 1)
apparent KD of MS2 coat protein [nM]: 80.3
//
macromoleculeSequence: CUUGUGUGAGGAUAUGAAUUGCCUGGUCAUCCAGGCUCCUGUCAGAAGGCACAUGAGGAUCACCCAUGUGGGCA [Biatire] (Eterna round: R97, puzzle: Exclusion 4)
apparent KD of MS2 coat protein [nM]: 882
//
macromoleculeSequence: CGGCGACAUGAGGAUCACCCAUGUGAGGAUAUGACGGGAAAAGCGUGAGCGGUUUGUGUCAGAAGGCGCGUAGG [salish99_ex1_r4_084] (Eterna round: R97, puzzle: Exclusion 1)
apparent KD of MS2 coat protein [nM]: 28.7
//
macromoleculeSequence: AAUACAAGCUAUUGAUCCCACAUGAGGAUCACCCAUGUUCCUGGCCGUGAGGCUAGGUAAACAAUAGCUCGUCUUAU [Sensor-V1 #42] (Eterna round: R97, puzzle: Sensor, turn-off variant 1)
apparent KD of MS2 coat protein [nM]: 99.8
//
macromoleculeSequence: UCGCUGCGAGGAUAUACAUGAGGAUCACCCAUGUGCGGGUCCGGGUCUUCGUCCAUUAGUAGAAGGCGCAGUGA [JL Laongeedie mod 4] (Eterna round: R96, puzzle: Exclusion 3)
apparent KD of MS2 coat protein [nM]: 119
//
macromoleculeSequence: AAAAGGUCAGGAUAUGCUUGGCGGAUUCUGGUAUCCAAAUGACAUGAGGAUCACCCAUGUAGAAGGGACAUCAG [Maanlesoge] (Eterna round: R97, puzzle: Exclusion 2)
apparent KD of MS2 coat protein [nM]: 20.6
//
macromoleculeSequence: AAGAUGCGGAUAGGAUAUGGAAAAAAAAAAAAAUUAGAAGGGUUGGUUAAAAUACAUGAGGAUCACCCAUGUGAAUCAUGAGAA [AK ExNG1-2.1] (Eterna round: R96, puzzle: Exclusion NG 1)
apparent KD of MS2 coat protein [nM]: 159
//
macromoleculeSequence: UGAGCAUGAGGAUAUACAAGGCGACCGUGAGGUCGAGGUUUACAUGAGGAUCACCCAUGUAGAAGGCAUGUUCU [jl-ex2-4.07] (Eterna round: R97, puzzle: Exclusion 2)
apparent KD of MS2 coat protein [nM]: 20
//
macromoleculeSequence: GAAUGAGAGCAGGAUAUCUUAAAAAUGUAUCAAAGAGAAGGGCUCACAUGAGGAUCACCCAUGUGGUCCUAGAU [jl-ex6-4.67 jandersonlee mod] (Eterna round: R97, puzzle: Exclusion 6)
apparent KD of MS2 coat protein [nM]: 22.5
//
macromoleculeSequence: AGCUGUGGCCGAGGAUAUACACAUGAGGAUCACCCAUGUAGGCGCGGAUACGCGCUAAAAUAAAUGUAGAAGGCGGUCUCAGCA [Eli eng2 - 055] (Eterna round: R96, puzzle: Exclusion NG 2)
apparent KD of MS2 coat protein [nM]: 11.8
//
macromoleculeSequence: UUUAGUUUAGGAUAUGUAGAUUUUAACAUGAGGAUCACCCAUGUAGAUCCUGAAUUAACUACAGAAGGGAACAUUU [Mod of Brourd 14 - Jieux - Exclusion 5] (Eterna round: R97, puzzle: Exclusion 5)
apparent KD of MS2 coat protein [nM]: 154
//
macromoleculeSequence: UUAAAUCAUGUAGGAUAUGCGUGGCGAAGCUAUGCAGAAGGACAUGAGGAUCACCCAUGUGCUUGCGUCUGCGUACAGAUGCUA [JL ENG1 1.12] (Eterna round: R96, puzzle: Exclusion NG 1)
apparent KD of MS2 coat protein [nM]: 63.7
